So I've got a bunch of molecules here, and I need their M65V, crude extract, rate of cleavage values.
biological target: E. coli PNP mutant M65V (Escherichia coli, UniProt P0ABP8, M65V); details: Table III; crude extract; 100 μM substrate; HPLC; average of separate experiments
Sequence (P0ABP8 whole entry M65V): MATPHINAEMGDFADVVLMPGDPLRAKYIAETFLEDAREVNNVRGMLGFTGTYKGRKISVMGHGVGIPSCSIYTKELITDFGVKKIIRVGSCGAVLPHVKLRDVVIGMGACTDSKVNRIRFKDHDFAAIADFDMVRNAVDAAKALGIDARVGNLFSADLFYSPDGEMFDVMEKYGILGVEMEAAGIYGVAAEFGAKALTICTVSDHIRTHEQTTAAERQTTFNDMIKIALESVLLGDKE

Task: Give the measured M65V, crude extract, rate of cleavage of C[C@@H](O)[C@H]1O[C@@H](n2cnc3c(N)nc(F)nc32)[C@H](O)[C@@H]1O .
Output: 93,000 nmole/mg/hr

Task: Give the measured M65V, crude extract, rate of cleavage of Cc1ncnc2c1ncn2[C@@H]1O[C@@H](C)[C@@H](O)[C@H]1O .
Output: 3,500 nmole/mg/hr

----------
molecular target: E. coli PNP mutant M65V (Escherichia coli, UniProt P0ABP8, M65V); conditions: Table III; pure enzyme; 100 μM substrate; HPLC; average of separate experiments
So I've got a bunch of compounds here, and I need their M65V, pure enzyme, rate of cleavage values.

Task: Give the measured M65V, pure enzyme, rate of cleavage of Cc1ncnc2c1ncn2[C@@H]1O[C@H](CO)[C@@H](O)[C@H]1O [9-(β-D-ribofuranosyl)-6-methylpurine, 6-Methyl-9-(β-D-ribofuranosyl)purine] .
Output: 140,000 nmole/mg/hr

Task: Give the measured M65V, pure enzyme, rate of cleavage of Nc1nc2c(ncn2[C@@H]2O[C@H](CO)[C@@H](O)[C@H]2O)c(=O)[nH]1 [guanosine] .
Output: 778,000 nmole/mg/hr

Task: Give the measured M65V, pure enzyme, rate of cleavage of Cc1ncnc2c1ncn2[C@@H]1O[C@@H](CO)[C@@H](O)[C@H]1O [9-(α-L-lyxofuranosyl)-6-methylpurine, 6-Methyl-9-α-L-lyxofuranosylpurine] .
Output: 9,600 nmole/mg/hr
